- study_system: T1, O5
- T1 chain: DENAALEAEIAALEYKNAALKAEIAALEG
- test: two-hybrid library CCNG1;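 note: natural log of median RNA to DNA barcode read ratio; higher means stronger binding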
quantity_measured: interaction score

binder: DENAALEAEIAALEYKNAALKAEIAALEG [O5]
interaction score: -2.36

binder: DKIQELEKENEELERKNWELKKEIQELER [4H2233-bH]
interaction score: -1.37

binder: DENAALEAKNAALKYKIAALKAKIAALKG [O2]
interaction score: -1.97

1: DEIAALEAENAALEYKIAALKAENAALEG [O15]
2: DKIAALKAEIAALEYKNAALKAKNAALKG [O4]
3: DKNAALKAENAALEYKIAALKAKIAALKG [O10]
4: DENAALEAEIAALEYENAALEAKIAALKG [O14]
Ascending by interaction score, please. Give the order by naming the labels one after another as requested.
2, 1, 3, 4
